Biological target: T1, RecE564 R744A (Escherichia coli K12, UniProt P15032 564-866, R744A)
T1 sequence: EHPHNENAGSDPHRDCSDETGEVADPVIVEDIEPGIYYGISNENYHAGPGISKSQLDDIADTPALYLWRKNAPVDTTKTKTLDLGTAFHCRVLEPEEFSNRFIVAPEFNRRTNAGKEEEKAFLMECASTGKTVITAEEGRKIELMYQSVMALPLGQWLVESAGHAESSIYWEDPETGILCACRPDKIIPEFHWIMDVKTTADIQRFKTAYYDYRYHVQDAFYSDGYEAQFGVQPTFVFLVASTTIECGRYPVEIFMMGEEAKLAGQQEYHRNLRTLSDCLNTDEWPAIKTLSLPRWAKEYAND
Test: fluorescence anisotropy
measure name: Kd (nM)
Only the number, expressed in nM, is required.

Inquiry: Kd for F25 (dsDNA) DNA 1: TAGAGCTTAATTGCTGAATCTGGTG DNA 2: CACCAGATTCAGCAATTAAGCTCTA ?
Reply text: 95
